# assay notes: In-vitro metabolism of LDAA compounds using liver microsomes
# Assay type: in vitro ADME, human
# measurement context: incubation time 60 minutes; 1.0E−07M
Counter-ions that a name gives are not always drawn. Non-standard residues stand in square brackets, D forms with d. Residues, ends and D or L forms follow the SMILES beside them. Dopa = N[C@@H](Cc1ccc(O)c(O)c1)C(=O)O
# % Compound Remaining 1st values compiled below
Unit % implied. Number only.

Some solved cases for reference:
{"columns": ["molecule", "unit descriptor", "meas value"],
 "data": [
  ["NC(=O)C[C@H](NC(=O)[C@@H](N)Cc1ccc(O)c(O)c1)C(=O)O [LD-Asn TFA salt, Levodopa Asparagine TFA Salt] (H-[Dopa]-Asn-OH)", "%", 58.9],
  ["NCCCC[C@H](NC(=O)[C@@H](N)Cc1ccc(O)c(O)c1)C(=O)O [LD-Lys TFA salt, Levodopa Lysine TFA Salt] (H-[Dopa]-Lys-OH)", "%", 59.5]
]}

Value of % Compound Remaining 1st reported for the molecule NC(=O)CC[C@H](NC(=O)[C@@H](N)Cc1ccc(O)c(O)c1)C(=O)O [LD-Gln TFA salt, Levodopa Glutamine TFA Salt] (H-[Dopa]-Gln-OH) is 80.4
